Origin of the recorded values: patent US20120177664A1

Overview of reported kon across a group of binders:
- TGT: T1, A beta oligomer (synthetic A beta1-40, HCl form, 0.1 mg/ml in PBS, incubated at 37 degrees C for one hour) (UniProt P05067 672-711)
- T1 construct: domain: A beta1-40; non-fibrous multimer of the peptide; also called A beta 1-40 oligomer
- TEST_PROTOCOL: SPR (Biacore 3000)
- Description: The analysis was carried out by Surface Plasmon Resonance (SPR) using Biacore 3000 (GE Healthcare Sciences).

{"columns": ["BINDER", "QUANTITY_UNIT", "kon"],
 "data": [
  ["IR-110 antibody (antibody, mouse IgG2b, V domains shown, mouse IgG2b) VH: DVQLVESGGGLVQPGGSRKLSCAASGFTFSSFGMHWVRQAPEKGLEWVAYISSGSSTIYYADTVKGRFTISRDNPKNTLFLQMTSLRSEDTAMYYCASYGNYGAYWGQGTLVTVSA VL: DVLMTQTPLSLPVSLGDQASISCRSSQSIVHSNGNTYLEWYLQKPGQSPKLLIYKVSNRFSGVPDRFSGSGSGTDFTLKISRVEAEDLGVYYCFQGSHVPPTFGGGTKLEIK", "M⁻¹ s⁻¹", 407000],
  ["IR-057 antibody (antibody, mouse IgG1, V domains shown, mouse IgG1) VH: DVQLVESGGGLVQPGGSRKLSCAASGFTFSSFGMHWVRQAPEKGLEWVAYISSGSSTIYYADTVKGRFTISRDNPKNTLFLQMTSLRSEDTAMYYCARYGNYAMDYWGQGTSVTVSS VL: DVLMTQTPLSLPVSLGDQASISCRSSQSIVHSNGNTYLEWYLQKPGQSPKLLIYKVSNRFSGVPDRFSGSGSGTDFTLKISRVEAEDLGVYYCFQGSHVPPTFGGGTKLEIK", "M⁻¹ s⁻¹", 370000]
]}
